// provenance: PubChem BioAssay (NCI)

- assay.name: NCI Yeast Anticancer Drug Screen. Data for the CLN2oe strain (AID 163);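 further: 0% = growth of vehicle-only control cultures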
- condition.parameters: S. cerevisiae CLN2oe strain, at 33.0 µM, stronger effect = higher value
Compounds without any hit were thinned out: in the full panel of roughly 79,000, 15% have a hit.
readout.name: growth inhibition (%)
Answer in %, number only, no unit symbol.

Some solved cases for reference:
O=C(c1ccc(Cl)cc1)C1OC12C(=O)Nc1ccccc12 (configuration not stated) ... 99
O=[N+]([O-])c1cc(CCl)ccc1CCl ... 94
Oc1c(Br)cc(Br)cc1C1CCCCC1 ... 98
CCN(CC)CCN1C(=O)c2cccc3cc(OC)cc(c23)C1=O ... 7
S=C(S)NN1CCOCC1 ... 27
CC(C)/C(Cl)=N\OC(=O)Nc1ccccc1F ... 19
O=C(NCCCNCCCNC(=O)c1cc(-c2ccccc2)nc2ccccc12)c1cc(-c2ccccc2)nc2ccccc12 ... 14
C/C(=N\NC(=S)N1CCCCC1)c1cccc(C)n1 ... 100
FC(F)(F)c1cc(NC(=S)N2c3ccccc3-n3cccc3C2c2cccnc2)cc(C(F)(F)F)c1 (configuration not stated) ... -1
CN(Cc1cnc2nc(N)nc(N)c2n1)c1ccc(C(=O)N[C@@H](CCC(=O)O)C(=O)O)cc1 ... -16

According to the records, this compound CC(=O)Oc1ccc2c(c1)Cc1cc(N=C3C=CC(=O)O3)ccc1-2 displays growth inhibition of 99

Memo: CSC(=S)Nc1cc(C)ccn1 , reported growth inhibition: 26

# growth inhibition of c1ccc2c(c1)c1ncccc1c1nccnc21 = -8

Recorded result, O=C(O)CNc1ccc(Cl)c(Cl)c1 , growth inhibition: 58

Value of measured growth inhibition for the entry BrCc1cccc2ccc3cccc(CBr)c3c12 : -13

# compound O=C1C=CC(=O)N1c1ccc2c(c1)Cc1cc(NC(=O)C(F)(F)F)ccc1-2 ; its growth inhibition = 26

Consider CC(O)C(O)C(O)C(/C=N\Nc1ccccc1)=N/Nc1ccccc1 (configuration not stated) . Its measured growth inhibition is 18
